Molecular target: T1, recombinant human FGF23 (R179Q) (human, UniProt Q9GZV9 25-251)
T1 construct: also called rhFGF23(R179Q); hFGF23(R179Q)
T1 sequence (looked up): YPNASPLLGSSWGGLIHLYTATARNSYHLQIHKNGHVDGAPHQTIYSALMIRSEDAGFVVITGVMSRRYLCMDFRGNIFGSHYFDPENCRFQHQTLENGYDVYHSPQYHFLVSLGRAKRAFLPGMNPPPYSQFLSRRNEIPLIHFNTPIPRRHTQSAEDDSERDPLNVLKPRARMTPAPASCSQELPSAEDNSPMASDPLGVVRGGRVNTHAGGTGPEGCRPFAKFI
Experiment: SPR, antibody captured on hIgG chip, rhFGF23(R179Q) analyte
Here the recorded Ratio (variant antibody KD/burosumab KD) is given for each entry.
Respond numerically, and do not add a unit to the figure.

UGX126 (antibody, human IgG1, kappa, V domains shown, also called LC:S52D; S52D) VH: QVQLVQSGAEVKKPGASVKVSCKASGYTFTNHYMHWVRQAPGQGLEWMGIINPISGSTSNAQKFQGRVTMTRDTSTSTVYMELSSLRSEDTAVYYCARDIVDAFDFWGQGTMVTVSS VL: AIQLTQSPSSLSASVGDRVTITCRASQGISSALVWYQQKPGKAPKLLIYDADSLESGVPSRFSGSGSGTDFTLTISSLQPEDFATYYCQQFNDYFTFGPGTKVDIKR	2
UGX204 (antibody, human IgG1, kappa, V domains shown, also called HC:S59E, LC:S52E; S59E/S52E) VH: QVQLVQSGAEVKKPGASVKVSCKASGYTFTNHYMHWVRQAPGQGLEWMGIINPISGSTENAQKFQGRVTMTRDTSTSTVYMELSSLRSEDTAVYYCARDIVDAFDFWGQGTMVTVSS VL: AIQLTQSPSSLSASVGDRVTITCRASQGISSALVWYQQKPGKAPKLLIYDAESLESGVPSRFSGSGSGTDFTLTISSLQPEDFATYYCQQFNDYFTFGPGTKVDIKR	2

Turning now to a further binder:
Entry under review: UGX157 (antibody, human IgG1, kappa, V domains shown, also called HC:I54Y; I54Y) VH: QVQLVQSGAEVKKPGASVKVSCKASGYTFTNHYMHWVRQAPGQGLEWMGIINPYSGSTSNAQKFQGRVTMTRDTSTSTVYMELSSLRSEDTAVYYCARDIVDAFDFWGQGTMVTVSS VL: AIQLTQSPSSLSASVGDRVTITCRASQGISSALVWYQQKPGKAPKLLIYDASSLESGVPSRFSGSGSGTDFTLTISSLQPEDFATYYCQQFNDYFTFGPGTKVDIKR . Reported Ratio (variant antibody KD/burosumab KD)?
3
